# test system: T1, rhodopsin (activation state not stated) (bovine, UniProt P02699 1-348)
# T1 construct: whole, on cells; same protein as m1; also called EDTA-washed rhodopsin
# T1 sequence (P02699 whole entry): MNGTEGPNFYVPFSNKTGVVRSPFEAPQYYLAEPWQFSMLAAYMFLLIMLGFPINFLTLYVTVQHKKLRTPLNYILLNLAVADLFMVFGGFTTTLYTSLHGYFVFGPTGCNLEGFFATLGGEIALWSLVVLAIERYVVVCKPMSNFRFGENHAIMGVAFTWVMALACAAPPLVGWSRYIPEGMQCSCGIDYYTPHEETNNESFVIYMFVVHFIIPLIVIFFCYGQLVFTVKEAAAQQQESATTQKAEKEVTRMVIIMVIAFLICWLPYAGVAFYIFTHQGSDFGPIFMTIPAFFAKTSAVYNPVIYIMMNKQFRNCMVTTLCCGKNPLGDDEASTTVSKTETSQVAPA
# method: ELISA of lysates, OD450 with receptor minus without receptor
Where no end group is shown, it is not given here.
Entry flag: yes (1) if ELISA reaches 0.4 OD450; no (0) if it does not.

| binder | group label |
| --- | --- |
| IHDRLKDCGLF (peptide, not shown: small tags and cut ends, also: fused to fusion carrier of the lysate via linker, not given here, first of two rows labelled L10) [L10 IHDRLKDCGLF] | yes (1) |

Query :: Is reported ELISA greater than or equal to 0.4 OD450 here: IRDNLKDCGLF (peptide, not shown: small tags and cut ends, also: fused to fusion carrier of the lysate via linker, not given here, second of two rows labelled L10) [L10 IRDNLKDCGLF]
Result :: no (0)

Query :: Please answer likewise for ICENLKDCGLF (peptide, not shown: small tags and cut ends, cysteine pairing not given here; also: fused to lysate carrier and linker, not given here) [L6 ICENLKDCGLF]
Result :: no (0)

Query :: Please answer likewise for IRGSLKDCGLF (peptide, not shown: small tags and cut ends, also: fused to LacI carrier via linker, letters not given here, also called L20) [Clone No. 13 (Table IX) IRGSLKDCGLF]
Result :: yes (1)

Cited source: patent US20040018558A1
